In this section, each of the molecules is paired with its reported MIC.
Test system: Trichoderma species 42
metric-name: MIC (µg/mL)

| molecule | value-qualifier | data-value |
| --- | --- | --- |
| N#CSCOc1c(Cl)cc(Cl)c(Cl)c1Cl [II] | = | 1 |
| N#CSCOc1ccc(Cl)cc1Cl [Compound V] | = | 10 |
| N#CSCOc1c(Cl)c(Cl)c(Cl)c(Cl)c1Cl [VI] | > | 500 |
| Cc1cc(OCSC#N)ccc1Cl [IV] | = | 100 |
| N#CSCOc1ccc(Cl)cc1 [III] | = | 100 |
| N#CSCOc1cc(Cl)c(Cl)cc1Cl [Compound I] | = | 10 |

----------
System: Candida pelliculosa
metric-name: MIC (µg/mL)

| structure-string | value-qualifier | data-value |
| --- | --- | --- |
| N#CSCOc1c(Cl)c(Cl)c(Cl)c(Cl)c1Cl | > | 500 |
| N#CSCOc1c(Cl)cc(Cl)c(Cl)c1Cl | = | 10 |
| N#CSCOc1cc(Cl)c(Cl)cc1Cl | = | 10 |
| Cc1cc(OCSC#N)ccc1Cl | = | 500 |
| N#CSCOc1ccc(Cl)cc1Cl | = | 10 |
| N#CSCOc1ccc(Cl)cc1 | = | 500 |

----------
Test: volatility determination, retention on glass fiber paper
Assay type: physicochemical
Conditions: 50° C. oven for 7 days, average of duplicate determinations
Protocol: To determine volatility and water solubility of the compounds, the following procedure was used: A 0.1 g. portion of each compound was dissolved in 2.0 ml. acetone. One-half of this solution was placed on a dry, pre-weighed, 7 cm. diameter sheet of glass fiber paper (Reeve Angel #934AH). […] The percent retention given in Table II was calculated by the following formula: [formula]
In this section, each of the molecules is paired with its reported Percent Retention, Volatility.

| molecule | Percent Retention, Volatility / % |
| --- | --- |
| N#CSCOc1c(Cl)cc(Cl)c(Cl)c1Cl [II] | 49 |
| N#CSCOc1cc(Cl)c(Cl)cc1Cl [Compound I] | 74 |
| N#CSCOc1ccc(Cl)cc1Cl [Compound V] | 6 |
| N#CSCOc1c(Cl)c(Cl)c(Cl)c(Cl)c1Cl [VI] | 97 |
| Cc1cc(OCSC#N)ccc1Cl [IV] | 12 |
| N#CSCOc1ccc(Cl)cc1 [III] | 2 |
